pIC50 overview
# system-name: CDK2/cyclin A2 (Homo sapiens, UniProt P24941)
# Construct: purchased Carna Biosciences, Inc. QS S Assist CDK2/Cyclin A2_FP Kit
# assay-notes: Human CDK2/cyclin A2 inhibitory activity (QS S Assist CDK2/Cyclin A2_FP Kit, IMAP fluorescence polarization)
# Type: biochemical
# condition-description: Human CDK2/cyclin A2 inhibitory activity; read-out: CDK2 Activity symbol
pIC50: −log10 of the molar value.

[
  {
    "compound": "CC(C)Nc1nc(C(F)F)cc2cnc(Nc3ccc(CN4CCC(C(=O)NS(C)(=O)=O)CC4)cn3)nc12",
    "pIC50": "7.00 to 8.00"
  },
  {
    "compound": "CNCC(F)COc1ccc(Nc2ncc3cc([C@@H](C)OC)nc(NC(C)C)c3n2)nc1 (stereo partly shown)",
    "pIC50": "≤ 7.00"
  },
  {
    "compound": "CC(C)Nc1nc([C@@H](C)O)cc2cnc(Nc3ccc(N4CCNCCC4=O)cn3)nc12",
    "pIC50": "7.00 to 8.00"
  },
  {
    "compound": "CO[C@H](C)c1cc2cnc(Nc3ccc(N4CCNCC4)nn3)nc2c(N[C@@H]2CCOC2)n1",
    "pIC50": "≤ 7.00"
  },
  {
    "compound": "CC(C)Nc1nc(C(F)F)cc2cnc(Nc3ccc(CN(C[C@H]4CCCO4)S(C)(=O)=O)cn3)nc12",
    "pIC50": "≤ 7.00"
  },
  {
    "compound": "OCc1cc2cnc(Nc3ccc(N4CCNCC4)cn3)nc2c(NC2CCCC2)n1",
    "pIC50": "7.00 to 8.00"
  },
  {
    "compound": "CC(O)c1cc2cnc(Nc3ccc(N4CCNCC4)cn3)nc2c(NC(C)c2ccccc2)n1 (stereo not shown)",
    "pIC50": "≤ 7.00"
  },
  {
    "compound": "CC(C)Nc1nc(C(F)F)cc2cnc(Nc3ccc(CN4CCNC(C)(C)C4)cn3)nc12",
    "pIC50": "7.00 to 8.00"
  },
  {
    "compound": "CC(=O)N(Cc1ccc(Nc2ncc3cc(C(F)F)nc(NC(C)C)c3n2)nc1)C[C@@H]1CCCO1",
    "pIC50": "≤ 7.00"
  },
  {
    "compound": "COCC(C)(C)Nc1nc([C@@H](C)O)cc2cnc(Nc3ccc(N4CCOCC4)nn3)nc12",
    "pIC50": "≤ 7.00"
  },
  {
    "compound": "COCC(C)(C)Nc1nc([C@@H](C)O)cc2cnc(Nc3ccc(CCCN4CCOCC4=O)cn3)nc12",
    "pIC50": "≤ 7.00"
  },
  {
    "compound": "CC(C)Nc1nc([C@@H](C)O)cc2cnc(Nc3ccc(N4CCCNCC4=O)cn3)nc12",
    "pIC50": "7.00 to 8.00"
  },
  {
    "compound": "CC(C)Nc1nc([C@@H](C)O)cc2cnc(Nc3ccc(N4CCNC5(CC5)C4)nn3)nc12",
    "pIC50": "≤ 7.00"
  },
  {
    "compound": "CO[C@H](C)c1cc2cnc(Nc3ccc(CCCN4CCOCC4=O)cn3)nc2c(NC(C)C)n1",
    "pIC50": "≤ 7.00"
  },
  {
    "compound": "CC(C)Nc1nc(C(F)F)cc2cnc(Nc3ccc(CN4CC(O)C4)cn3)nc12",
    "pIC50": "≤ 7.00"
  },
  {
    "compound": "CC(C)Nc1nc(C(F)F)cc2cnc(Nc3ccc(CN4CCNC5(CC5)C4)cn3)nc12",
    "pIC50": "7.00 to 8.00"
  },
  {
    "compound": "CC(C)Nc1nc(C(F)F)cc2cnc(Nc3ncc(N4CCNCC4)cn3)nc12",
    "pIC50": "≤ 7.00"
  },
  {
    "compound": "CC(C)Nc1nc(C(F)F)cc2cnc(Nc3ccc(CN4CCN(S(C)(=O)=O)CC4)cn3)nc12",
    "pIC50": "≤ 7.00"
  },
  {
    "compound": "CNC(=O)C1CCN(Cc2ccc(Nc3ncc4cc([C@@H](C)OC)nc(NC(C)C)c4n3)nc2)CC1",
    "pIC50": "≤ 7.00"
  },
  {
    "compound": "CC(C)Nc1nc(C(F)F)cc2cnc(Nc3ccc(-c4ccccc4)cn3)nc12",
    "pIC50": "≤ 7.00"
  },
  {
    "compound": "C[C@@H](O)c1cc2cnc(Nc3ccc(N4CCNCC4=O)cn3)nc2c(N[C@H]2CCOC2)n1",
    "pIC50": "≤ 7.00"
  },
  {
    "compound": "C[C@@H](O)c1cc2cnc(Nc3ccc(CN4CCNCC4)cn3)nc2c(N[C@@H]2CCOC2)n1",
    "pIC50": "≤ 7.00"
  },
  {
    "compound": "CO[C@H](C)c1cc2cnc(Nc3ccc(CN4CCNCC4=O)cn3)nc2c(NC(C)C)n1",
    "pIC50": "≤ 7.00"
  },
  {
    "compound": "COCC(C)(C)Nc1nc([C@@H](C)O)cc2cnc(Nc3ccc(CN4CCNCC4)cn3)nc12",
    "pIC50": "≤ 7.00"
  },
  {
    "compound": "FC(F)c1cc2cnc(Nc3ccc(CN4CCNCC4)cn3)nc2c(NC2CCOCC2)n1",
    "pIC50": "7.00 to 8.00"
  },
  {
    "compound": "CO[C@H](C)c1cc2cnc(Nc3ccc(N4CCNC[C@@H]4C)nn3)nc2c(NC(C)C)n1",
    "pIC50": "≤ 7.00"
  },
  {
    "compound": "CO[C@H](C)c1cc2cnc(Nc3cnc(N4CCNCC4)cn3)nc2c(NC(C)C)n1",
    "pIC50": "≤ 7.00"
  },
  {
    "compound": "CC(C)Nc1nc(C(F)F)cc2cnc(Nc3ccc(N4CCNCC4)nn3)nc12",
    "pIC50": "7.00 to 8.00"
  },
  {
    "compound": "CC(C)Nc1nc(C(F)F)cc2cnc(Nc3ccc(N4CC[C@H](O)CC4=O)cn3)nc12",
    "pIC50": "7.00 to 8.00"
  },
  {
    "compound": "C[C@@H](O)c1cc2cnc(Nc3ccc(CN4CCNCC4)cn3)nc2c(NC2CCS(=O)(=O)CC2)n1",
    "pIC50": "≤ 7.00"
  },
  {
    "compound": "C[C@@H](O)c1cc2cnc(Nc3ccc(N4CCN(C=O)CC4=O)cn3)nc2c(N[C@@H]2CCCOC2)n1",
    "pIC50": "≤ 7.00"
  }
]

----------
Entries and their pIC50 values follow.
# system-name: CDK4/cyclin D3 (Homo sapiens, UniProt P11802)
# Construct: purchased Carna Biosciences, Inc. QS S Assist CDK4/Cyclin D3_FP Kit
# Sequence (P11802 whole entry): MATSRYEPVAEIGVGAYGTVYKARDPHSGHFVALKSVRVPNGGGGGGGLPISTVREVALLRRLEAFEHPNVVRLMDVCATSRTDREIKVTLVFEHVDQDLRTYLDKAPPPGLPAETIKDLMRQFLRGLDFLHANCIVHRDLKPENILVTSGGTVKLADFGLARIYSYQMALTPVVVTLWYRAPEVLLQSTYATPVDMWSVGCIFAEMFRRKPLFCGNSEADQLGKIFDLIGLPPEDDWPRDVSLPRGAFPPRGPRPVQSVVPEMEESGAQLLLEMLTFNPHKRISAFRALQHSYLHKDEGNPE
# Sequence (P30281 whole entry partner): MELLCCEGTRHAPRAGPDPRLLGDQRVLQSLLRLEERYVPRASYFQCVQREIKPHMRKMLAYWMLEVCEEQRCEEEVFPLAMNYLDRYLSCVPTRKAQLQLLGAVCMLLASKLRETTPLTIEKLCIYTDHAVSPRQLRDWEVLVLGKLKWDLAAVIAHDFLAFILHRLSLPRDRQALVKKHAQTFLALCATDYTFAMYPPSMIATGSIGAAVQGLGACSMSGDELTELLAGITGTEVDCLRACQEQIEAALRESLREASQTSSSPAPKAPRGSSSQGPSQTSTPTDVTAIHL
# assay-notes: Human CDK4/cyclin D3 inhibitory activity (QS S Assist CDK4/Cyclin D3_FP Kit, IMAP fluorescence polarization)
# Assay type: biochemical
# condition-description: 50% inhibitory concentration against CDK4/cyclin D3, given as class symbol
# Description: Human CDK4/Cyclin D3 Inhibitory Activity Each compound was analyzed for CDK4/cyclin D3 inhibitory activity with an assay kit (QS S Assist CDK4/Cyclin D3_FP Kit, available from Carna Biosciences, Inc.). […] Specifically, the kinase activity is determined through quantification of a variation in fluorescent polarization caused by binding of a kinase-phosphorylated fluorescent substance to an IMAP-binding reagent. […]
pIC50: −log10 of the molar value.

[
  {
    "compound": "CC(C)Nc1nc(C2(C)COC2)cc2cnc(Nc3ccc(CN4CCNCC4)cn3)nc12",
    "pIC50": "> 8.00"
  },
  {
    "compound": "C[C@@H](O)c1cc2cnc(Nc3ccc(O[C@H]4CC[C@H](N(C)C)CC4)cn3)nc2c(N[C@H]2CCCOC2)n1",
    "pIC50": "> 8.00"
  },
  {
    "compound": "CCNc1nc([C@@H](C)O)cc2cnc(Nc3ccc(N4CCNCC4)cn3)nc12",
    "pIC50": "> 8.00"
  },
  {
    "compound": "CC(C)Nc1nc([C@@H](C)O)cc2cnc(Nc3ccc(C(=O)N4CC[C@H](N(C)C)C4)cn3)nc12",
    "pIC50": "> 8.00"
  },
  {
    "compound": "CNC1CCCC1Oc1ccc(Nc2ncc3cc(C(C)O)nc(NC(C)C)c3n2)nc1 (stereo not shown) [Compound 801]",
    "pIC50": "> 8.00"
  },
  {
    "compound": "C[C@@H](O)c1cc2cnc(Nc3ccc(N4CCNCC4=O)cn3)nc2c(NC(C)(C)C)n1",
    "pIC50": "> 8.00"
  },
  {
    "compound": "CN(C)CCN1CCc2nc(Nc3ncc4cc(C5(C)COC5)nc(N[C@H]5CC[C@H](O)CC5)c4n3)ccc2C1",
    "pIC50": "> 8.00"
  }
]
